- SYSTEM UNDER TEST: human CGRP receptor (Homo sapiens, UniProt O60894+Q16602)
- Construct: SK-N-MC endogenously expressing the human CGRP receptor; endogenous in cells; host or cells: SK-N-MC human neuroblastoma cells
- Sequence (Q16602 23-461): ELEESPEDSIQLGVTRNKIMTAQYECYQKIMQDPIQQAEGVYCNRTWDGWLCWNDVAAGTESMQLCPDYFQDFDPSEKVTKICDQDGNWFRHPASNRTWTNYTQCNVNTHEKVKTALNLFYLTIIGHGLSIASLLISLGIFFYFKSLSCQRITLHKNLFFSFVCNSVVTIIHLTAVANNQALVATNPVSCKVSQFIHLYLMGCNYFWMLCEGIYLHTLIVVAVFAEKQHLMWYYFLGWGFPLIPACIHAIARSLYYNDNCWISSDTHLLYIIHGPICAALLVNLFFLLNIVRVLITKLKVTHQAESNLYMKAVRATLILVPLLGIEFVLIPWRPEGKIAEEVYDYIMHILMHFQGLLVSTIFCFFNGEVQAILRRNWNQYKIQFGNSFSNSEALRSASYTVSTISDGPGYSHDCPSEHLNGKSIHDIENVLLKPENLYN
- Sequence (O60894 27-148): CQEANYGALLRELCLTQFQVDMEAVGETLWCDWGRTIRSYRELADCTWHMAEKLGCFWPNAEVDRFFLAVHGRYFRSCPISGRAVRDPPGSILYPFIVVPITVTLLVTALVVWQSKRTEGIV
- RUN DESCRIPTION: cAMP functional assay (HTRF cAMP dynamic-2) in SK-N-MC cells
- Type: cell-based
- SETUP CONDITIONS: SK-N-MC cells endogenously expressing human CGRP receptor; challenge with EC80 human CGRP (0.3 nM); functional pKb converted from pIC50 by modified Cheng-Prussoff equation
hey, just use 1 if measured Kb is less than 0.8 nM, otherwise -1

# COMPOUND, LABEL VALUE
rows = [
    ("Cc1cc(C[C@H]2NC(=O)c3cnc4c(c3)C[C@@]3(C4)C(=O)Nc4ncc(cc43)/C=C/CCCCCCCN(C)C2=O)cc2cn[nH]c12", 1),
    ("Cc1cc(C[C@H]2NC(=O)c3ccc4c(n3)CC3(C4)C(=O)Nc4ncc(cc43)/C=C/COCCOCCN(C)C2=O)cc2cn[nH]c12 (single isomer, unassigned) [Example 8-1]", -1),
    ("Cc1cc(C[C@H]2NC(=O)c3ccc4c(c3)C[C@@]3(C4)C(=O)Nc4ncc(cc43)/C=C/COCCOCCN(C)C2=O)cc2cn[nH]c12", -1),
    ("Cc1cc(C[C@H]2NC(=O)N3CCC4(CC3)OC(=O)Nc3ncc(cc34)/C=C/COCCOCCN(C)C2=O)cc2cn[nH]c12", 1),
    ("Cc1cc(C[C@H]2OC(=O)N3CCC4(CC3)OC(=O)Nc3ncc(cc34)CCCOCCOCCOCCN(C)C2=O)cc2cn[nH]c12", -1),
    ("Cc1cc(C[C@H]2OC(=O)N3CCC4(CC3)OC(=O)Nc3ncc(cc34)CCCOCCCCCN(C)C2=O)cc2cn[nH]c12", 1),
    ("Cc1cc(C[C@H]2NC(=O)c3ccc4c(n3)CC3(C4)C(=O)Nc4ncc(cc43)/C=C/COCCOCCN(C)C2=O)cc2cn[nH]c12 (single isomer, unassigned) [Example 8-2]", -1),
    ("Cc1cc(C[C@H]2OC(=O)N3CCC4(CC3)OC(=O)Nc3ncc(cc34)/C=C/COCCOCCN(C)C2=O)cc2cn[nH]c12", -1),
    ("Cc1cc(C[C@H]2NC(=O)c3cc4c(cn3)C[C@@]3(C4)C(=O)Nc4ncc(cc43)/C=C/COCCN(C)CCN(C)C2=O)cc2cnn(C)c12", -1),
    ("CN1CCOCCOC/C=C/c2cnc3c(c2)[C@]2(Cc4ccc(cc4C2)C(=O)NC(Cc2cc(Cl)c4[nH]ncc4c2)C1=O)C(=O)N3 (mixture of isomers)", -1),
    ("Cc1cc(C[C@H]2NC(=O)c3cc4c(cn3)C[C@@]3(C4)C(=O)Nc4ncc(cc43)/C=C/COCCCCN(C)C2=O)cc2cnn(C)c12", -1),
]
